Recorded values, source patent US20240002416A1.

- study target: human MRGPRX4-83L (Homo sapiens, UniProt Q96LA9)
- Construct: host or cells: CHO β-arrestin cells
- Sequence (Q96LA9 whole entry): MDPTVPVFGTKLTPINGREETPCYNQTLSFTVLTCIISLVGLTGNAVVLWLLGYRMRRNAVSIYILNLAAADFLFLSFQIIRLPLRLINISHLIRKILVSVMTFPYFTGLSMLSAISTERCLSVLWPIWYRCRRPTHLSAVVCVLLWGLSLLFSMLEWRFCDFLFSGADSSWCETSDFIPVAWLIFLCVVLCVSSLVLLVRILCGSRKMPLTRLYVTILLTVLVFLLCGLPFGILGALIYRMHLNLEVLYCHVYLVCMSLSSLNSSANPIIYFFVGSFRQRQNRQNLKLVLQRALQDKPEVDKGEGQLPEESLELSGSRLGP
- test name: β-arrestin assay (CHO β-arrestin ARMS1-ProLink 2 human MRGPRX4 83L)
- Type: cell-based
- condition context: Table 1; efficacy based on maximal effect of 100 nM B-16 (set as 100%); read-out: Emax
quantity measured: Emax (%)
The response must be a number in % with no trailing unit.

• C#CCn1c(=O)c2c(nc(CCc3ccccc3Br)n2Cc2ccccc2)n(CCCCP(=O)(O)O)c1=O = 164
• C#CCn1c(=O)c2c(nc(CCc3ccccc3Br)n2CC)n(CCCCP(=O)(O)O)c1=O = 144
• C#CCn1c(=O)c2[nH]c(CCc3cccc(OC)c3)nc2n(CCCCP(=O)(O)O)c1=O = 91

In: Item C#CCn1c(=O)c2c(nc(CCc3ccccc3Br)n2C)n(CCCCP(=O)(O)O)c1=O has what recorded Emax?
Out: 132

In: Next compound: C#CCn1c(=O)c2[nH]c(CCc3ccccc3OC)nc2n(CCCCP(=O)(O)O)c1=O
Out: 103

In: Next compound: C#CCn1c(=O)c2c(nc(CCc3ccccc3Br)n2C)n(CCCCP(=O)(O)OCC)c1=O
Out: 108

====

- study target: human MRGPRX4-83L (Homo sapiens)
- Construct: host or cells: CHO β-arrestin cells
- test name: β-arrestin assay (CHO β-arrestin ARMS1-ProLink 2 human MRGPRX4 83L)
- Assay type: cell-based
- condition context: Table 4; β-arrestin recruitment, CHO cells, MRGPRX4-83L; read-out: EC50 ± SEM
pEC50 reference
Would you please state pEC50, meaning minus log10 of the concentration in mol/L, as a bare number?

Look over these answered cases.
* C#CCn1c(=O)c2c(nc(CCc3ccccc3Br)n2CCN)n(CCCCP(=O)(O)O)c1=O | 6.25
* C#CCn1c(=O)c2c(nc(CCc3ccccc3Br)n2C(C)C)n(CCCCP(=O)(O)O)c1=O | 7.87
* C#CCn1c(=O)c2c(nc(CCc3ccccc3I)n2C(C)C)n(CCCCP(=O)(O)O)c1=O | 8.16
* C#CCn1c(=O)c2c(nc(CCc3ccc(Br)cc3)n2CC2CCCC2)n(CCCCP(=O)(O)O)c1=O | 8.84
* C#CCn1c(=O)c2c(nc(CCc3ccccc3I)n2CC)n(CCCCP(=O)(O)O)c1=O | 7.06

Let us examine a further case.
In: Item C#CCn1c(=O)c2[nH]c(CCc3ccccc3F)nc2n(CCCCP(=O)(O)O)c1=O has what recorded pEC50?
Out: 5.09

====

Emax reference
- study target: human MRGPRX4-83L (Homo sapiens)
- Construct: host or cells: CHO β-arrestin cells
- test name: β-arrestin assay (CHO β-arrestin ARMS1-ProLink 2 human MRGPRX4 83L)
- Format: cell-based
- condition context: Table 1; efficacy based on maximal effect of 100 nM B-16 (set as 100%); read-out: Emax
The response must be a number in % with no trailing unit.

• C#CCn1c(=O)c2[nH]c(CCc3ccccc3Cl)nc2n(CCCCP(=O)(O)O)c1=O [B-9] = 107
• C#CCn1c(=O)c2c(nc(CCc3ccccc3Br)n2CCC)n(CCCCP(=O)(O)O)c1=O [B-22] = 176

In: Item C#CCn1c(=O)c2c(nc(CCc3cccc(OC)c3)n2C)n(CCCCP(=O)(O)O)c1=O [B-15] has what recorded Emax?
Out: 141

In: Next compound: C#CCn1c(=O)c2c(nc(CCc3cccc(OC)c3)n2C)n(CCCOP(=O)(O)O)c1=O [H-1, reference compound]
Out: 97

In: Next compound: C#CCn1c(=O)c2[nH]c(CCc3ccccc3Br)nc2n(CCCCP(=O)(O)O)c1=O [B-8]
Out: 98

In: Next compound: C#CCn1c(=O)c2[nH]c(CCc3ccccc3OC)nc2n(CCCCP(=O)(O)OCC)c1=O [D-2]
Out: 122

In: Next compound: C#CCn1c(=O)c2[nH]c(CCc3cccc(F)c3)nc2n(CCCCP(=O)(O)O)c1=O [B-3]
Out: 89

In: Next compound: C#CCn1c(=O)c2[nH]c(CCc3cccc(C)c3)nc2n(CCCCP(=O)(O)O)c1=O [B-5]
Out: 99
